Recorded IC50 values (DPP-IV (Homo sapiens, UniProt P27487)) are given below.
Where a name gives a salt, the structure may show the parent alone.
experimental-readout: IC50 (µM)

Completed entries (count: 5):
molecule="N#C[C@@H]1CCCN1C(=O)CNC1CCC(Oc2ccc(C(F)(F)F)cc2)CC1 (some centres unmarked) [Ex. 2EE, monohydrochloride]" unit_tag=µM meas_value=0.023
molecule="CC(C)(CNc1ccc(Cl)cn1)NCC(=O)N1CCC[C@H]1C#N [Ex. 1, monohydrochloride]" unit_tag=µM meas_value=0.002
molecule="N#C[C@@H]1CCCN1C(=O)CNC1CCC(Nc2ccnc(Cl)n2)CC1 (some centres unmarked) [Ex. 2S, dihydrochloride]" unit_tag=µM meas_value=0.003
molecule="N#Cc1ccc(NC2CCC(NCC(=O)N3CCC[C@H]3C#N)CC2)cc1 (some centres unmarked) [Ex. 2W, dihydrochloride]" unit_tag=µM meas_value=0.013
molecule="N#C[C@@H]1CCCN1C(=O)CNC1CCC(Nc2nc3cc(Cl)ccc3s2)CC1 (some centres unmarked) [Ex. 2Y, dihydrochloride]" unit_tag=µM meas_value=0.012

[A] N#C[C@@H]1CCCN1C(=O)CNC1CCC(NS(=O)(=O)c2ccccc2)CC1 (some centres unmarked) [Ex. 2M, monohydrochloride]
[B] N#C[C@@H]1CCCN1C(=O)CNC1CCN(S(=O)(=O)c2ccc(Cl)cc2)CC1 [Ex. 3, monohydrochloride]
Challenge: Could you please tell me which of these two has the higher IC50: A or B ? // output: label of the selected item
Response given: B
(B: 0.124 µM, A: 0.034 µM)
